Task for the reader: assign each of the following binders its reported apparent Kd (screen).
# ASSAYED TARGET: T1, TNFR1 (Homo sapiens, UniProt P19438)
# T1 chain: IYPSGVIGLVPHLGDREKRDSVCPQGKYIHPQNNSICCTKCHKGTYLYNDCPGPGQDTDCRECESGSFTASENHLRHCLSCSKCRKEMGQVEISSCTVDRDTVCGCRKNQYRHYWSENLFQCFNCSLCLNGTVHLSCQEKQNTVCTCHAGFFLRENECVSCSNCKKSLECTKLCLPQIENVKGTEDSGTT
# ASSAY EXPLANATION: yeast display SC50
Note: unit nM is implicit; provide only the numeric part.

Q: Reported apparent Kd (screen), binder L25K (designed binder) SMEEEVEKAAKEYEKKKKEAIEKHKEKLKAKDKEAAERFLKELEEAAKEYAKDEAKTMSEEEAKRRAKKYKEKVLLSELSEEEQKEIKEAEEKLVRTILKYVEEAAK : ____
A: 1.4

Q: Reported apparent Kd (screen), binder E86D (designed binder) SMEEEVEKAAKEYEKKKKEAIEKHLEKLKAKDKEAAERFLKELEEAAKEYAKDEAKTMSEEEAKRRAKKYKEKVLLSELSEEEQKDIKEAEEKLVRTILKYVEEAAK : ____
A: 0.49

Q: Reported apparent Kd (screen), binder E62R (designed binder) SMEEEVEKAAKEYEKKKKEAIEKHLEKLKAKDKEAAERFLKELEEAAKEYAKDEAKTMSEERAKRRAKKYKEKVLLSELSEEEQKEIKEAEEKLVRTILKYVEEAAK : ____
A: 0.49

Q: Reported apparent Kd (screen), binder A46G (designed binder) SMEEEVEKAAKEYEKKKKEAIEKHLEKLKAKDKEAAERFLKELEEGAKEYAKDEAKTMSEEEAKRRAKKYKEKVLLSELSEEEQKEIKEAEEKLVRTILKYVEEAAK : ____
A: 0.49

Q: Reported apparent Kd (screen), binder K16I (designed binder) SMEEEVEKAAKEYEKIKKEAIEKHLEKLKAKDKEAAERFLKELEEAAKEYAKDEAKTMSEEEAKRRAKKYKEKVLLSELSEEEQKEIKEAEEKLVRTILKYVEEAAK : ____
A: 0.446

Q: Reported apparent Kd (screen), binder E104Q (designed binder) SMEEEVEKAAKEYEKKKKEAIEKHLEKLKAKDKEAAERFLKELEEAAKEYAKDEAKTMSEEEAKRRAKKYKEKVLLSELSEEEQKEIKEAEEKLVRTILKYVEQAAK : ____
A: 1.05

Q: Reported apparent Kd (screen), binder E49F (designed binder) SMEEEVEKAAKEYEKKKKEAIEKHLEKLKAKDKEAAERFLKELEEAAKFYAKDEAKTMSEEEAKRRAKKYKEKVLLSELSEEEQKEIKEAEEKLVRTILKYVEEAAK : ____
A: 9.41

Q: Reported apparent Kd (screen), binder A20I (designed binder) SMEEEVEKAAKEYEKKKKEIIEKHLEKLKAKDKEAAERFLKELEEAAKEYAKDEAKTMSEEEAKRRAKKYKEKVLLSELSEEEQKEIKEAEEKLVRTILKYVEEAAK : ____
A: 0.539
